# Test system: Plasmodium berghei
# METHOD NOTES: Luciferase/luciferin-expressing antifolate-resistant parasites were used to infect a culture of HepG2 cells that were pre-incubated with compounds. Infected hepatocytes emit light due to the luciferase reaction. Assay results are presented as the percent inhibition of light emission compared to control. […]
# Format: functional
# CONDITIONS: sporozoite, PBLUC_HILL_SLOPE 12.6, PBLUC_R_SQUARED 0.201, read-out: LUCIFERASE INFECTION ASSAY - IC50
QUANTITY NAME: pIC50
The scale used: pIC50 is minus the common logarithm of the concentration in molar units.

Query :: Dear colleague, I am looking for the recorded pIC50 of the following compound: Cc1c(C(=O)OC(C)C(=O)N2CCN(Cc3ccccc3)CC2)sc2nc3n(c(=O)c12)CCC3 (stereo unspecified)
Result :: 5.05
